Entry source: patent US9221833B2

System: genotype 1b Con1 replicon
ASSAY OVERVIEW: microbe, parasite or virus in culture
Format: cell-based, HCV
ASSAY SETUP: Hepatitis C virus, read-out: 1b (nM)
Label Y when EC50 is strictly below 0.03 nM; at or above that, label N.

{"columns": ["MOLECULE", "CLASS"],
 "data": [
  ["COC[C@H]1C[C@@H](c2nc3ccc4cc5c(cc4c3[nH]2)OCc2cc(-c3cnc([C@@H]4C[C@H](C)CN4C(=O)[C@H](NC(=O)OC)c4ccccc4)[nH]3)ccc2-5)N(C(=O)[C@@H](NC(=O)OC)C(C)C)C1", "N"]
]}

Ask: Please let me know if "COC[C@H]1C[C@@H](c2nc3ccc4cc5c(cc4c3[nH]2)OCc2cc(-c3cnc([C@@H]4C[C@H]6C[C@H]6N4C(=O)[C@@H](NC(=O)OC)[C@@H](C)OC)[nH]3)ccc2-5)N(C(=O)[C@H](NC(=O)OC)c2ccccc2)C1" shows EC50 below 0.03 nM.
Reply: N

Ask: Please state whether EC50 is below 0.03 nM for "COC(=O)N[C@H](C(=O)N1CCC[C@H]1c1ncc(-c2ccc3c(c2)COc2cc4c(ccc5nc([C@@H]6C[C@H](C)CN6C(=O)[C@H](NC(=O)OC)c6ccccc6)[nH]c54)cc2-3)[nH]1)C(C)C"
Reply: Y

Ask: Input COC(=O)NC(C(=O)N1CCCC1c1nc2ccc3cc4c(cc3c2[nH]1)OCc1cc(-c2cnc(C3CCCN3C(=O)C(NC(=O)O)C(C)C)[nH]2)ccc1-4)c1ccccc1 (centres unmarked) ; condition: EC50 strictly below 0.03 nM. Does it hold?
Reply: Y

====

Test system: Q30R in genotype 1a NS5A
ASSAY OVERVIEW: Antiviral potency against resistance mutant, 1a Pi-Rluc replicon in Huh-7-derived cured-51 cells
Format: cell-based, HCV
ASSAY SETUP: genotype 1a Q30R resistance mutant; EC50 range class; read-out: 1a Q30R
pEC50: −log10 of the molar value.
I'd appreciate it if you could supply pEC50 values for the items below.

Consider the following illustrative entries.
{"columns": ["SMILES", "pEC50"],
 "data": [
  ["COC[C@H]1C[C@@H](c2nc3ccc4cc5c(cc4c3[nH]2)OCc2cc(-c3cnc([C@@H]4CC[C@H](C)N4C(=O)[C@@H](NC(=O)OC)C(C)C)[nH]3)ccc2-5)N(C(=O)[C@@H](NC(=O)OC)[C@@H](C)OC)C1", "> 9.00"],
  ["COC[C@H]1C[C@@H](c2ncc(-c3ccc4c(c3)COc3cc5c(ccc6nc([C@@H]7C[C@H]8C[C@H]8N7C(=O)[C@H](NC(=O)OC)c7ccccc7)[nH]c65)cc3-4)[nH]2)N(C(=O)[C@@H](NC(=O)OC)C(C)C)C1", "> 9.00"],
  ["COC[C@H]1C[C@@H](c2nc3c([nH]2)-c2cc4c(cc2CC3)-c2ccc(-c3cnc([C@@H]5CCCN5C(=O)[C@@H](NC(=O)OC)C(C)C)[nH]3)cc2CO4)N(C(=O)[C@H](NC(=O)OC)c2ccccc2)C1", "> 9.00"],
  ["COC[C@@H]1C[C@@H](c2nc3ccc4cc5c(cc4c3[nH]2)OCc2cc(-c3cnc([C@@H]4CCCN4C(=O)[C@@H](NC(=O)OC)C(C)C)[nH]3)ccc2-5)N(C(=O)[C@H](NC(=O)OC)c2ccccc2)C1", "> 9.00"]
]}

Would you kindly look at the next entry?
Ask: # pEC50 lookup, item "COC(=O)N[C@H](C(=O)N1CCC[C@H]1c1ncc(-c2ccc3c(c2)COc2cc4c(cc2-3)CCc2[nH]c([C@@H]3CCCN3C(=O)[C@@H](NC(=O)OC)C(C)C)nc2-4)[nH]1)C(C)C"
Reply: 7.36 to 9.00
